- Test name: yeast display, Sf9 membrane polyspecificity reagent, FACS + sequencing; frameworks hold sequencing errors
Readout type: polyreactivity (PSR sort gate)

- Residues: "QVQLVESGGGLVQARGSLRLSCAASGRTFTSYAMGWYRQAPGKERELVAAISKRGGNTYYADSVKGRFTISRDNAKNTVYLQMNSLKPEDTAVYYCAARTWAGRWYGLDYWGQGTQVTVSS"
  Readout type: "polyreactivity (PSR sort gate)"
  Data value: "high polyreactivity"
- Residues: "QVQLVESGGGLVQAGGSLRLSCAASGRISLSNAMGWYRQAPGKEREFVAAITKRSDRTYYADSVKGRFTISRDNAKNTVSLQMNSLKPEDTAVYYCAAKPLFGTRDDYWGQGTQVTVSS"
  Readout type: "polyreactivity (PSR sort gate)"
  Data value: "low polyreactivity"
- Residues: "QVQLVESGGCLVQAGGSLRLRGAASGRIFGYYAMGWYRQAPGKEWELVAAISRGGSTNYADSVKGRFTISRDNAKNTVYLQMNSLKPEDTAVYYCAAVQRTHPRYYYWGQGTQVTVSS"
  Readout type: "polyreactivity (PSR sort gate)"
  Data value: "high polyreactivity"
- Residues: "QVQLVESGGGLVQAGGSLRLSCAASGIIIRYYGMGWYRQAPGKERELVARIRWTGGSTYYADSVKGRFTISRDNAKNTVYLQMNSLKPEDTAVYYCAAQWKYRQSYLDYYWGQGTQVTVSS"
  Readout type: "polyreactivity (PSR sort gate)"
  Data value: "low polyreactivity"

Query block: # polyreactivity (PSR sort gate) lookup, item QVQLVESGGGLVQAGGSLRLSCAASGFTLGLYAMGWYRQAPGKERELVAAITAGGDSTDYADSVKGRFTISRDNAKNTVYLQMNSLKPEDTAVYYCAAPSYWLYYYILDSSDYWGQGTQVTVSS
Result block: high polyreactivity

Query block: # polyreactivity (PSR sort gate) lookup, item QVQLVESGGGLVQAGGSLRLSCAASGFTFYPYAMGWYRQAPGTERELVAAIRGSGGSTHYADSVKGRFTISRDNAKNTVYLQMNSLKPEDTAVYYCAARIRGYRQYEYYYWGQGTQVTVSS
Result block: high polyreactivity

Query block: # polyreactivity (PSR sort gate) lookup, item QVQLVESGGGLVQAGGSLRLSCAASGSNFHGNSLGRYRQGTGKERELVAAISQSGDSTYYADSVKGRFTISRDNAKNTVYLQMNSLKPEDTAVYYCAARSGYRGYYHFYYWGQGTQVTVSS
Result block: high polyreactivity
